Test system: GLP-1 receptor
assay-protocol: ELISA assay of secreted GLP-1 forms (mSTC-1 GLP-1 sec CRC)
Format: cell-based
test-conditions: mSTC-1 cells, GLP-1 secretion, concentration-response curve, ELISA readout, FIG. 1; read-out: action as a GLP-1 receptor agonist (mSTC-1 GLP-1 sec CRC)
value-kind: pEC50
Notebook: values listed as pEC50 are -log10 of the concentration (mol/L).

Field request: pEC50 | item: O=C(Cc1ccccc1)N1CN2CC=C[C@H](O1)[C@H]2c1ccccc1 (relative stereo) [Ib]
4.96
